Data provenance: patent US20170362301A1

Could you please report measured binding ratio vs parent P54AR4-83v2 for the items listed next?
target: EGFR (form in the assay not stated) (human, UniProt P00533 25-645, limits assumed); assay: ELISA, NEM conjugate 100 nM
Answers are plain numbers, in ratio.

Please review the entries below; each comes with its answer.
1. P54AR4-83v2 S10C, NEM conjugate (designed binder, NEM on Cys 10, His-tagged) LPAPKNLVVCEVTEDSARLSWDDPWAFYESFLIQYQESEKVGEAIVLTVPGSERSYDLTGLKPGTEYTVSIYGVHNVYKDTNMRGLPLSAIFTT = 1.07
2. P54AR4-83v2 K62C, NEM conjugate (designed binder, NEM on Cys 62, His-tagged) LPAPKNLVVSEVTEDSARLSWDDPWAFYESFLIQYQESEKVGEAIVLTVPGSERSYDLTGLCPGTEYTVSIYGVHNVYKDTNMRGLPLSAIFTT = 0.73
3. P54AR4-83v2 V49C, NEM conjugate (designed binder, NEM on Cys 49, His-tagged) LPAPKNLVVSEVTEDSARLSWDDPWAFYESFLIQYQESEKVGEAIVLTCPGSERSYDLTGLKPGTEYTVSIYGVHNVYKDTNMRGLPLSAIFTT = 1.01

--- query ---
## Input State the recorded binding ratio vs parent P54AR4-83v2 for this entry: P54AR4-83v2 S70C, NEM conjugate (designed binder, NEM on Cys 70, His-tagged) LPAPKNLVVSEVTEDSARLSWDDPWAFYESFLIQYQESEKVGEAIVLTVPGSERSYDLTGLKPGTEYTVCIYGVHNVYKDTNMRGLPLSAIFTT
## Output 1.01
